B1: SERPINB5 (parent)
chain: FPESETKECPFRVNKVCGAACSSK

- Variants of: B1
- Protocol Details: protein stability index of a GFP-peptide fusion (GPS, HEK-293T) (PSI 1-6); higher = more stable;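 note: lentivirally expressed fusions sorted by FACS into six bins by GFP to DsRed ratio, PSI derived from sequencing read proportions per bin multiplied by bin number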
- Test Settings: c terminus: a fixed tail appended
Where protein stability index equals or exceeds 3, the correct label is y; where it does not, the label is n.

1) FPESETKECPFRVNKVCGANCSSK    y
2) FPESETKEIPFRVNKVCGAACSSK    y
3) FPESETKECPFRVNKVCGAACSDK    n
4) FPESETKECPFIVNKVCGAACSSK    n
5) FPESETKECNFRVNKVCGAACSSK    y

Then there is this variant:
Can FPESETKECPIRVNKVCGAACSSK be said to have protein stability index at or above 3?
y
